FYI, the data here is from PubChem BioAssay (NCATS).

method.description: Quantitative High-Throughput drug screen in 47 multiple myeloma cell lines against the NCATS MIPE library collection: KMS12PE_JCRB cell viability assay (AID 1918972); further: nearly all actives have a fitted effect of over 30% in size;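 on viability: 100% = DMSO only wells and 0% = wells with media alone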
settings: KMS12PE myeloma viability, CellTiter-Glo ATP, 48 h; series mostly up to 45.8 µM
Results filed as inconclusive are left out. Active and inactive are the calls of the source. The call rests on the fitted dose curve; in most records, active means well fitted cell-killing curve with a large enough effect; inconclusive means small, poorly fitted or top-dose-only effect, or effect the other way; inactive means no such curve, though single readings can be large or run the other way.
Pick one and only one: 1.0 (active), 0.0 (inactive)

compound="O=S(=O)(CC1CS1)c1ccc(Oc2ccccc2)cc1 (configuration not stated)" answer_label=1.0

Exercise: Could you check what this test reported for CC(N[C@H]1C[C@H]1c1ccccc1)c1ccc2c(c1)OCCO2 (some centres not stated) ?
Solution: 0.0

Exercise: Another compound to look at: CC(O)=C(C#N)C(=O)Nc1cc(Br)ccc1Br
Solution: 1.0

Exercise: Another compound to look at: c1ccc(CCCN2CCN(CCOC(c3ccccc3)c3ccccc3)CC2)cc1
Solution: 0.0

Exercise: Another compound to look at: CC(C)N(CCNC(=O)CN1CCCC1=O)C(C)C
Solution: 0.0

Exercise: Another compound to look at: Cc1c(C(=O)c2cccc3ccccc23)c2cccc3c2n1[C@H](CN1CCOCC1)CO3
Solution: 1.0

Exercise: Another compound to look at: CC(=CCCC1=CCC(C2=CC(=O)OC2O)OC1O)CCC1=C(C)CCCC1(C)C (configuration not stated)
Solution: 0.0

Exercise: Another compound to look at: c1ccc2c(CN3CCNCC3)cccc2c1
Solution: 0.0

Exercise: Another compound to look at: CN1[C@H]2CC(O)C[C@H]1[C@H]1O[C@H]12 (some centres not stated)
Solution: 0.0

Exercise: Another compound to look at: N=c1c2c(-c3ccccc3)c(-c3ccccc3)n(Cc3ccccc3)c2ncn1C1CCC(O)CC1 (configuration not stated)
Solution: 1.0

Exercise: Another compound to look at: Cc1ccccc1-n1c(Cn2ncc3c(N)ncnc32)nc2cccc(C)c2c1=O
Solution: 1.0

Exercise: Another compound to look at: CCNC(=O)C[C@@H]1N=C(c2ccc(Cl)cc2)c2cc(OC)ccc2-n2c(C)nnc21
Solution: 1.0

Exercise: Another compound to look at: CSCC[C@@H](NC(=O)[C@@H](Cc1ccccc1)NC(=O)CNC(=O)CNC(=O)[C@@H](N)Cc1ccc(O)cc1)C(=O)O
Solution: 0.0

Exercise: Another compound to look at: Clc1ccccc1C(c1ccccc1)(c1ccccc1)n1cccn1
Solution: 0.0

Exercise: Another compound to look at: C[C@@H]1[C@H](O)[C@@H](C)C=CC=CCCC=CC=CC=CC=C[C@H](O[C@H]2O[C@@H](C)[C@H](O)[C@@H](N)[C@@H]2O)CC2O[C@](O)(C[C@@H](O)[C@H](O)CC[C@@H](O)C[C@@H](O)C[C@@H](O)CC(=O)O[C@H]1C)C[C@H](O)[C@H]2C(=O)O
Solution: 0.0

Exercise: Another compound to look at: CCOP(=O)(OCC)C(C)NC(=O)N(CCCl)N=O (configuration not stated)
Solution: 0.0

Exercise: Another compound to look at: CC[C@@H]1[C@@H](C)O[C@@](O)([C@@H](C)[C@H](O)[C@H](C)[C@H]2OC(=O)C=CC=C[C@@H](C)[C@@H]([C@@H](C)[C@@H](O)[C@H](C)[C@@]3(O)C[C@H](O[C@H]4C[C@H](O)[C@H](O)[C@H](C)O4)[C@H](CC)[C@@H](C)O3)OC(=O)C=CC=C[C@@H]2C)C[C@H]1O[C@H]1C[C@H](O)[C@H](O)[C@H](C)O1
Solution: 1.0
